target_entity: T1, human CD40 on cells (human, UniProt P25942 21-277)
T1 construct: whole, on cells; The cell line used is named in each row's assay; also called hCD40; TNFRSF5
assay_method_text: FACS, CHO-K1/hCD40 cells
measured_property: pEC50
Value format note: pEC50 is -log10 of concentration (mol/L); just state the number.

Use the examples below as a reference point.
PR006502 (antibody, human IgG1, kappa, V domains shown, PR003379 variant L:N92D; human IgG1 L234A, L235A, G237A) VH: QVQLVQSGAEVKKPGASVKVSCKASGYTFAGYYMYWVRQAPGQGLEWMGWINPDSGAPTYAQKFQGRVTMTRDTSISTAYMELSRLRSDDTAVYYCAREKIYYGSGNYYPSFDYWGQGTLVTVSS VL: DIQLTQSPSFLSASVGDRVTITCRASQGISSYLAWYQQKPGKAPKLLIYAASTLQSGVPSRFSGSGSGTEFTLTISSLQPEDFATYYCQQLDSYPWTFGQGTKVEIKR    8.34
PR006506 (antibody, human IgG1, kappa, V domains shown, PR003379 variant L:S93F; human IgG1 L234A, L235A, G237A) VH: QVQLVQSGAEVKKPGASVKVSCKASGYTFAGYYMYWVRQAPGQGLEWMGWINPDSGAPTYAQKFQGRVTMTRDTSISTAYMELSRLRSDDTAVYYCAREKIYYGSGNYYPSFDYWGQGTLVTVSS VL: DIQLTQSPSFLSASVGDRVTITCRASQGISSYLAWYQQKPGKAPKLLIYAASTLQSGVPSRFSGSGSGTEFTLTISSLQPEDFATYYCQQLNFYPWTFGQGTKVEIKR    8.23

As a next step, examine the binder that follows.
Q. Which pEC50 value is on record for PR006500 (antibody, human IgG1, kappa, V domains shown, PR003379 variant L:N92M; human IgG1 L234A, L235A, G237A) VH: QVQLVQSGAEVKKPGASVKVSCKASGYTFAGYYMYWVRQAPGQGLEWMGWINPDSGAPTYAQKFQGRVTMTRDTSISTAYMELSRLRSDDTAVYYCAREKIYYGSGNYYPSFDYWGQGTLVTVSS VL: DIQLTQSPSFLSASVGDRVTITCRASQGISSYLAWYQQKPGKAPKLLIYAASTLQSGVPSRFSGSGSGTEFTLTISSLQPEDFATYYCQQLMSYPWTFGQGTKVEIKR ?
A. 8.30
